Source: paper PMC10155203

# Assay explanation: Physicochemical and biopharmaceutical properties obtained in-house (PBPK input, experimental data)
# Condition description: aqueous buffer; at pH 6.8, experimental data; read-out: reference solubility (amorphous)
Reported endpoint: solubility
Just so you know, I need the unit written after the number.

Look at this molecule and give its reported solubility. "COC(=O)N[C@@H](C)CNc1nccc(-c2cn(C(C)C)nc2-c2cc(Cl)cc(NS(C)(=O)=O)c2F)n1"
200 µg/mL

###

# Assay explanation: Study 1: food effect clinical study, single oral dose of encorafenib 100 mg, fasted vs high-fat meal, plasma PK and safety
# Format: in vivo, human
# Condition description: human, plasma, po, 100 mg, study 1, 100 mg single oral dose, fasted, GM (GCV%)
Reported endpoint: Cmax (µg/mL)
The answer is to be given in µg/mL; state only the numeric part.

Look at this compound and give its reported Cmax. COC(=O)N[C@@H](C)CNc1nccc(-c2cn(C(C)C)nc2-c2cc(Cl)cc(NS(C)(=O)=O)c2F)n1 [encorafenib, Encorafenib]
0.962

###

# Assay explanation: Study 2: PPI (rabeprazole) interaction clinical study, single oral dose of encorafenib, plasma PK and safety
# Type: in vivo, human
# Condition description: human, plasma, oral, 300 mg
Reported endpoint: AUC(0-t) (ng·h/mL)
The answer is to be given in ng·h/mL; state only the numeric part.

Look at this compound and give its reported AUC(0-t). "COC(=O)N[C@@H](C)CNc1nccc(-c2cn(C(C)C)nc2-c2cc(Cl)cc(NS(C)(=O)=O)c2F)n1"
14700

###

# Assay explanation: Study 1: food effect clinical study, single oral dose of encorafenib 100 mg, fasted vs high-fat meal, plasma PK and safety
# Format: in vivo, human
# Condition description: human, plasma, po, 100 mg, study 1, 100 mg single oral dose, fasted, arithmetic mean ± SD
Reported endpoint: half-life (h)
The answer is to be given in h; state only the numeric part.

Look at this compound and give its reported half-life. COC(=O)N[C@@H](C)CNc1nccc(-c2cn(C(C)C)nc2-c2cc(Cl)cc(NS(C)(=O)=O)c2F)n1 [encorafenib, Encorafenib]
4.79

###

# Assay explanation: Study 2: PPI (rabeprazole) interaction clinical study, single oral dose of encorafenib, plasma PK and safety
# Type: in vivo, human
# Condition description: human, plasma, oral, 100 mg
# Protocol: Both studies were conducted at the Celerion Clinical Research Unit in Lincoln, NE. The trial protocols and informed consent documentation were reviewed and approved by the institutional review boards at the center. […] The overall safety profile was characterized by laboratory test abnormalities, physical examination, vital signs, ECGs, and AEs. […] Triplicate ECGs were also measured at the end of the studies or upon early termination. […]
Reported endpoint: AUC(0-t) (ng·h/mL)
The answer is to be given in ng·h/mL; state only the numeric part.

Look at this compound and give its reported AUC(0-t). COC(=O)N[C@@H](C)CNc1nccc(-c2cn(C(C)C)nc2-c2cc(Cl)cc(NS(C)(=O)=O)c2F)n1 [encorafenib, Encorafenib]
4120

###

# Assay explanation: Study 1: food effect clinical study, single oral dose of encorafenib 100 mg, fasted vs high-fat meal, plasma PK and safety
# Type: in vivo, human
# Condition description: human, plasma, po, 100 mg, study 1, 100 mg single oral dose, fasted, median (range); read-out: Tmax
Reported endpoint: Tmax (h)
The answer is to be given in h; state only the numeric part.

Look at this compound and give its reported Tmax. COC(=O)N[C@@H](C)CNc1nccc(-c2cn(C(C)C)nc2-c2cc(Cl)cc(NS(C)(=O)=O)c2F)n1 [encorafenib, Encorafenib]
1.5
